The measured values listed here are drawn from paper PMC5540273.

Tested on: BRK
Construct: gene PTK6
Stated Conditions: concentration: 1 μM,replicates: in singlicate; n = 1;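 note: KINOMEscan kinase panel screen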
Could you mark each record class 1 if its %Inh falls strictly under 10%, and class 0 if it equals or exceeds it?

The following compounds have reported results that may help.
{"Compound": "Cc1ccc(CC(=O)N2CCc3cc(-c4cn(C)c5ncnc(N)c45)ccc32)cc1", "Class Assignment": "class 0"}
{"Compound": "Nc1nccc(-c2ccc3c(N)n[nH]c3c2)n1", "Class Assignment": "class 1"}
{"Compound": "C[C@@H](Oc1cc(-n2cnc3ccc(-c4ccncc4)cc32)sc1C(N)=O)c1ccccc1Cl", "Class Assignment": "class 0"}

# TODO verify %Inh < 10% strictly for this compound: COc1cccc(CNC(=O)NC2CCN(c3ccnc(Nc4cc(OC)c(OC)c(OC)c4)n3)C2)c1 (stereo not drawn)
class 0

# TODO verify %Inh < 10% strictly for this compound: "CC(C)S(=O)(=O)N1CCN(Cc2ccc3c(c2)nc(NC(=O)c2ccsc2)n3C[C@H](O)c2ccccc2)CC1"
class 1

# TODO verify %Inh < 10% strictly for this compound: "COc1cccc(C2=C(Nc3cccc(Cl)c3)C(=O)NC2=O)c1"
class 0

# TODO verify %Inh < 10% strictly for this compound: CC(C(=O)NC1CCN(c2ccnc(Nc3ccc(F)cc3)n2)C1)c1ccc(Cl)cc1 (stereo not drawn)
class 1

# TODO verify %Inh < 10% strictly for this compound: "Cn1ccc2ncnc(Oc3ccc(NC(=O)Nc4cccc(C(F)(F)F)c4)c(Cl)c3)c21"
class 1

# TODO verify %Inh < 10% strictly for this compound: COc1cc(Nc2nccc(N3CCC(NC(=O)c4cccc(C#N)c4)C3)n2)cc(OC)c1OC (stereo not drawn)
class 1

# TODO verify %Inh < 10% strictly for this compound: "O=C1NCCc2[nH]c(-c3ccncc3)cc21"
class 1

# TODO verify %Inh < 10% strictly for this compound: "CN1CCN(CCCNc2nccc(-c3c(-c4ccc(F)cc4)nn4cc(C(N)=O)ccc34)n2)CC1"
class 1

# TODO verify %Inh < 10% strictly for this compound: "O=c1[nH]cc(-c2ccc(O)cc2)c2sc(-c3ccncc3)cc12"
class 1

# TODO verify %Inh < 10% strictly for this compound: "Cc1cccc(-c2nc(Nc3ccncc3)c3sccc3n2)n1"
class 1

# TODO verify %Inh < 10% strictly for this compound: "c1ccc(Oc2ccc(Nc3ccnc4ccc(-c5ccccn5)cc34)cc2)cc1"
class 0

# TODO verify %Inh < 10% strictly for this compound: "Cc1n[nH]c2cc(Nc3ccnc(Nc4cccc(CN5CCOCC5)c4)n3)ccc12"
class 0

# TODO verify %Inh < 10% strictly for this compound: "CSc1nccc(-c2c(-c3ccc(F)cc3)ncn2CCCN2CCOCC2)n1.Cl"
class 1

# TODO verify %Inh < 10% strictly for this compound: "OCCn1cc(-c2cnc3nnn(Cc4ccc5ncccc5c4)c3n2)cn1"
class 1

###

Tested on: CLK2
Stated Conditions: concentration: 1 μM,replicates: in singlicate; n = 1
For each of the compounds below, state its %Inh.
One number for each entry, in %.

# example entries with known answers
{"Compound": "CN(c1ccc2c(c1)nc(NCc1ccc(F)cc1)n2C)c1ccnc(Nc2ccc(CS(C)(=O)=O)cc2)n1.Cl [GW813244]", "Units Symbol": "%", "Quantitative Readout": 46}
{"Compound": "Cn1ccc2ncnc(Oc3ccc(NC(=O)Nc4cncc(C(F)(F)F)c4)c(Cl)c3)c21", "Units Symbol": "%", "Quantitative Readout": 7}
{"Compound": "OCCn1cc(-c2cnc3nnn(Cc4ccc5ncccc5c4)c3n2)cn1", "Units Symbol": "%", "Quantitative Readout": 0}
{"Compound": "C[C@@H]1CCN(C(=O)N2CCCC2)C[C@@H]1N(C)c1ncnc2[nH]ccc12", "Units Symbol": "%", "Quantitative Readout": 8}
{"Compound": "Cn1ccc2ncnc(Oc3ccc(NC(=O)Nc4cc(C(C)(C)C)on4)c(Cl)c3)c21", "Units Symbol": "%", "Quantitative Readout": 95.1}

Look up %Inh for the entries below, preserving their order.
1. CS(=O)(=O)c1cccc(CNc2nc(Nc3ccc4c(c3)[C@@H]3C[C@@H]4CNC3=O)ncc2C(F)(F)F)c1
2. CCNCC(Cc1ccccc1)NC(=O)c1cc(Br)c(-c2ccnc3[nH]ccc23)s1.Cl.Cl (stereo not shown) [GSK1383280]

6
71

###

Test system: ALK
Stated Conditions: concentration: 1 μM,replicates: in singlicate; n = 1
Test Readout: %Inh

{"Molecule": "Cn1ccc2ncnc(Oc3ccc(NC(=O)Nc4cccc(C(F)(F)F)c4)c(F)c3)c21", "Result": "20%"}
{"Molecule": "Cc1ccc(CC(=O)N2CCc3cc(-c4cn(C)c5ncnc(N)c45)ccc32)cc1", "Result": "0%"}
{"Molecule": "O=C(Nc1cccc(Oc2ccc3nccn3n2)c1)Nc1cccc(C(F)(F)F)c1", "Result": "14%"}

Look up %Inh for the entries below, preserving their order.
1. C[C@@H](Oc1cc(-n2cnc3cc(-c4cnn(C)c4)ccc32)sc1C(N)=O)c1ccccc1Cl
2. Cc1ccc2c(-c3ccnc(Nc4ccc(C(F)(F)F)cc4)n3)cnn2n1
3. Cc1n[nH]c2cc(Nc3ccnc(Nc4cccc(CN5CCOCC5)c4)n3)ccc12
4. Cn1ccc2ncnc(Oc3ccc(NC(=O)Nc4cnn(C(C)(C)C)c4)c(Cl)c3)c21
5. CS(=O)c1ccc(-c2coc3ccc(-c4n[nH]c(=O)o4)cc23)cc1 (centres unmarked)
6. C[C@@H](Oc1cc(-n2cnc3ccc(-c4ccncc4)cc32)sc1C(N)=O)c1ccccc1Cl
7. FC(F)(F)c1cc(Br)cc(Nc2nccc(-c3cnn4ncccc34)n2)c1

1. 31%
2. 0%
3. 16%
4. 0%
5. 13%
6. 20%
7. 0%

Look up %Inh for the entries below, preserving their order.
1. Cc1cccc2c(-c3ccncc3)c(-c3ccc(F)cc3)nn12.Cl
2. O=C(Nc1n[nH]c2cc(-c3ccco3)ccc12)C1CC1
3. O=C1NCCc2[nH]c(-c3ccncc3)cc21
4. CS(=O)(=O)Nc1ccc(-c2ccnc3[nH]ccc23)cc1

1: 7%; 2: 7%; 3: 0%; 4: 18%

###

For each of the compounds below, state its %Inh.
System: GSK3B
Stated Conditions: concentration: 1 μM,replicates: in singlicate; n = 1

# example entries with known answers
{"Compound": "COc1cc2ncn(-c3cc(OCC4CCCCC4)c(C(N)=O)s3)c2cc1OC", "Result": "0%"}
{"Compound": "COc1cc(Nc2nccc(N3CCC(NC(=O)c4cccc(C#N)c4)C3)n2)cc(OC)c1OC (stereo not drawn)", "Result": "5%"}
{"Compound": "C[C@@H]1CNc2c(sc3ccc4nc(-c5ccncc5)ccc4c23)C(=O)N1", "Result": "3%"}
{"Compound": "Cl.c1ccc(Oc2ccc(Nc3ccnc4cc(-c5ccc(CN6CCNCC6)o5)ccc34)cc2)nc1", "Result": "0%"}
{"Compound": "O=C1NCCc2[nH]c(-c3ccncc3)cc21", "Result": "54%"}
{"Compound": "Nc1nccc(-c2ccc3c(N)n[nH]c3c2)n1", "Result": "19%"}
{"Compound": "O=C(Nc1cccc(C(F)(F)F)c1)c1cccc(Oc2ccc3nccn3n2)c1", "Result": "2%"}
{"Compound": "Cn1cc(-c2cccc3c(N)c(C(N)=O)nnc23)cn1", "Result": "20%"}

Could you now consider this next compound?
Report %Inh for CC(C(=O)NC1CCN(c2ccnc(Nc3ccc(F)cc3)n2)C1)c1ccc(Cl)cc1 (stereo not drawn)
0%

###

Test system: SIK2
Stated Conditions: concentration: 1 μM,replicates: in singlicate; n = 1
Test Readout: %Inh (%)
Give bare numbers, in %.

# example entries with known answers
{"Compound": "Cc1ccc(Nc2ccnc(Nc3ccc4c(c3)CS(=O)(=O)C4)n2)cc1O.Cl [GW579362]", "Assay System": "SIK2", "%Inh [%]": 60}
{"Compound": "Cn1cc(-c2cccc3c(N)c(C(N)=O)nnc23)cn1", "Assay System": "SIK2", "%Inh [%]": 17}
{"Compound": "COc1cccc(CNC(=O)NC2CCN(c3ccnc(Nc4cc(OC)c(OC)c(OC)c4)n3)C2)c1 (stereo not shown) [GSK1379765]", "Assay System": "SIK2", "%Inh [%]": 0}
{"Compound": "Cc1ccc(CC(=O)N2CCc3cc(-c4cn(C)c5ncnc(N)c45)ccc32)cc1 [GSK2634758]", "Assay System": "SIK2", "%Inh [%]": 0}
{"Compound": "CS(=O)(=O)c1cccc(CNc2nc(Nc3ccc4c(c3)[C@@H]3C[C@@H]4CNC3=O)ncc2C(F)(F)F)c1", "Assay System": "SIK2", "%Inh [%]": 47}
{"Compound": "COc1cccc(OC)c1C(=O)Nc1cccc(-c2nn3ccccc3c2-c2ccnc(Nc3cccc(F)c3)n2)c1 [GSK361065]", "Assay System": "SIK2", "%Inh [%]": 0}

Report %Inh for COC(=O)Nc1nc2cc(Oc3ccc(NC(=O)Nc4cc(C(F)(F)F)ccc4Cl)cc3)ccc2[nH]1.Cl [GW697465]
0
